Values from patent US20180305414A1

- measurement.target: human IgG (available from the Chemo-Sero-Therapeutic Research Institute) (human)
- assay: binding capacity; binder immobilised on agarose gel, human IgG, acid elution, A280
parameter.measured: IgG Binding Capacity (mg/mL gel)

modified product PL-035 of immunoglobulin-binding domain 4 (designed binder) MAQHDEAGLALETPEEPREEVTIRVNLIFADGKTQTAEFKGTFEEATAEAYRYADLLAKVNGEYTADLEDGGYTINIKFAGALPSKSKKILKEAKKLNKAQAPKKKK
56.9
modified product PL-060 of immunoglobulin-binding domain 4 (designed binder) MAQHDEAGLALEKPEEPTEEVTIRVNLIFADGRTQTAEFKGTFEEATAEAYRYADLLAKVNGEYTADLEDGGYTINIKFAGALPSKSKKILKEAKKLNKAQAPKKKK
57.6
